TARGET OR SYSTEM: T1, human serum albumin (human, UniProt P02768 25-609)
T1 construct: Negative control of the ELISA; also called HSA
T1 sequence (P02768 25-609 limits assumed): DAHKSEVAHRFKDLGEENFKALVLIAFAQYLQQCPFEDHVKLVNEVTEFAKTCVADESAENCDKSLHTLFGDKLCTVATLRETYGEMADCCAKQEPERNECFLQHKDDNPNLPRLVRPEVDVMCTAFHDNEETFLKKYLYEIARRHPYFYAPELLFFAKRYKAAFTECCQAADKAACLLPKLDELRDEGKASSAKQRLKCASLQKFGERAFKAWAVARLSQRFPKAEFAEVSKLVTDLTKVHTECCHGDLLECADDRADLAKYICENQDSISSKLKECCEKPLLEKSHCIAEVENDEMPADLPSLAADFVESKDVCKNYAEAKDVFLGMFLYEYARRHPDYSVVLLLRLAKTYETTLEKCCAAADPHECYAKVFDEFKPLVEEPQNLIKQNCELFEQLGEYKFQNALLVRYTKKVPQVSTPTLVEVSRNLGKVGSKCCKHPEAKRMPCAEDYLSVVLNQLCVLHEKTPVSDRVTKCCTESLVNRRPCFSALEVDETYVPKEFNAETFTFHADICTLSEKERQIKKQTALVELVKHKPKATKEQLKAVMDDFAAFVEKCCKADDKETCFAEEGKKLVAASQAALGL
MEASUREMENT PROTOCOL: ELISA, negative control HSA
For each entry below, report its ELISA HSA (RLU) value.
Give bare numbers, in RLU.

Known results for binders:
[
  {
    "BINDER": "ISOP193HR9P1E3 (designed binder, not shown: small tags and cut ends) LPAPKNLVVSRVTEDSARLSWTAPDAAFDSFEIYYFELRLGGEAIVLTVPGSERSYDLTGLKPGTEYLVTIYGVKGGAYSNPLSAIFTT",
    "RESULT UNIT": "RLU",
    "ELISA HSA (RLU)": 640
  },
  {
    "BINDER": "ISOP193AR9P1H8 (designed binder, not shown: small tags and cut ends) LPAPKNLVVSRVTEDSARLSWTNEQITKYGFDSFLIQYQESEKVGEAIVLTVPGSERSYDLTGLKPGTEYTVSIYGVGRFYTVFDSNPLSAIFTT",
    "RESULT UNIT": "RLU",
    "ELISA HSA (RLU)": 1040
  },
  {
    "BINDER": "ISOP193GR9P1F7 (designed binder, not shown: small tags and cut ends) LPAPKNLVVSRVTEDSARLSWTAPDAAFDSFDIPYVEYYPSGEAIVLNVPGSERSYDLTGLKPGTEYGVTIWGIKGGNESVPLTARFTT",
    "RESULT UNIT": "RLU",
    "ELISA HSA (RLU)": 400
  }
]

Fill in ELISA HSA (RLU) for each of the 2 binders listed.
1. ISOP193HR9P1C8 (designed binder, not shown: small tags and cut ends) LPAPKNLVVSRVTEDSARLSWTAPDAAFDSFEIYYFELRLGGEAIVLTVPGSERSYDLTGLKPGTEYLVTIYGVKGGGYSTPLSAIFTT
2. ISOP193ER9P1G4 (designed binder, not shown: small tags and cut ends) LPAPKNLVVSRVTEDSARLSWTAPDAAFDSFDIYYFEHPVGGEAIVLTVPGSERSYDLTGLKPGTEYLVTIYGVKGGNFSFPLSAIFTT

560
320

Each of the following entries comes with a recorded value; kindly state ELISA HSA (RLU) for each.
1. ISOP193FR9P1G10 (designed binder, not shown: small tags and cut ends) LPAPKNLVVSRVTEDSARLSWTAPDAAFDSFTIYYFENENGGEAIVLTVPGSERSYDLTGLKPGTEYLVTIYGVKGGHWSRPLSAIFTT
2. ISOP193AR9P1G5 (designed binder, not shown: small tags and cut ends) LPAPKNLVVSRVTEDSARLSWRISDRLPLFDSFLIQYQESEKVGEAIVLTVPGSERSYDLTGLKPGTEYTVSIYGVGRHYTVYDSNPLSAIFTT
3. ISOP193BR9P1G9 (designed binder, not shown: small tags and cut ends) LPAPKNLVVSRVTEDSARLSWKQVTVAPEFDSFLIQYQESEKVGEAIVLTVPGSERSYDLTGLKPGTEYTVSIYGVKFPYYYATADSNPLSAIFTT
4. ISOP193ER9P1G9 (designed binder, not shown: small tags and cut ends) LPAPKNLVVSRVTEDSARLSWTAPDAAFDSFDIYYFEHPVGGEAIVLTVPGSERSYDLTGLKPGTEYLVTIYGVKGGNGSSPLSAIFTT

1. 880
2. 720
3. 720
4. 400
